Recorded values, source paper PMC7413254.

Record form. Attribute: Trans-stimulation: total [3H]CQ transport, PfCRT3D7 oocytes. Fill in for each entry.
Target: PfCRT^3D7 (Plasmodium falciparum)
Sequence (Q8IBZ9 59-398): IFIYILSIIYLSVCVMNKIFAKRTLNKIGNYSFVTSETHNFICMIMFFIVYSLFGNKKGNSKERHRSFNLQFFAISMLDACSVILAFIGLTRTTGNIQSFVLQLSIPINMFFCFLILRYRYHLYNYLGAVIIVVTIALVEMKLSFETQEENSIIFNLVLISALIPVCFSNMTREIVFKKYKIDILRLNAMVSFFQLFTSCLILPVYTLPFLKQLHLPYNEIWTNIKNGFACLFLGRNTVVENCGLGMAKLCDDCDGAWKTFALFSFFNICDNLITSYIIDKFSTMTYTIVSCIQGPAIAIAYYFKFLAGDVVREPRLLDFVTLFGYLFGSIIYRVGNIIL
Assay: cell-based
Type: cell-based
Conditions: footnote b: highest intracellular concentration tested was 30 mM (solubility); mean ± SEM; SEM

For the sequence VEPSDTIENVK [VK-11] , what Trans-stimulation: total [3H]CQ transport, PfCRT3D7 oocytes is on record? 15 ± 0.3b % of PfCRTDd2 control

What about GTFATLSELHCDK [GK-13] ? 3.1 ± 0.04b % of PfCRTDd2 control

Can you check YFPHFDLS [YS-8] next? 3.1 ± 0.04b % of PfCRTDd2 control

Now this one: VHLTPEEKSAVT [VT-12] 3.1 ± 0.06b % of PfCRTDd2 control

Would you kindly repeat that for LTPEEKSAVTAL [LL-12] ? 3.1 ± 0.05b % of PfCRTDd2 control
